Assay: Cytotoxicity against MDCK cells assessed as reduction in cell viability measured after 72 hrs by CCK8 assay
Format: toxicity, cell-based, Canis lupus familiaris
Conditions: dog
PROPERTY_MEASURED: CC50 at 72 h

Entry `CCCC(=O)c1c(O)c(CC2=C(O)C(C)(C)C(O)=C(C(C)=O)C2=O)c(O)c(Cc2c(O)c(CC3=C(O)C(C)(C)C(O)=C(C(C)=O)C3=O)c(O)c(C(=O)CCC)c2O)c1O` : reported CC50 at 72 h = ?
> 400 µM

----------
Tested on: Influenza A virus
Assay: Antiviral activity against influenza A virus H1N1, A/PR/8/34
Format: functional, organism-based
compounds and their reported EC50
Number only, in µM; omit the unit.

Would you please look over these solved cases?
What does the data say about its EC50? Entry: NC(=O)c1nc(F)cnc1O [FAVIPIRAVIR]
37.4

Try the compound `CC(=O)c1cc(O)ccc1O[C@@H]1O[C@H](COC(=O)c2cc(O)c(O)c(O)c2)[C@@H](O)[C@H](OC(=O)c2cc(O)c(O)c(O)c2)[C@H]1O`
20.2

With those in mind, consider the next compound.
Requested read-out: EC50. Entry: `CC(=O)c1cc(O)ccc1O[C@@H]1O[C@H](CO)[C@@H](O)[C@H](OC(=O)c2cc(O)c(O)c(O)c2)[C@H]1OC(=O)c1cc(O)c(O)c(O)c1`
30.7

----------
Test: Cytotoxicity against MDCK cells by MTS assay
Assay type: toxicity, cell-based, Canis lupus familiaris
Details: dog
PROPERTY_MEASURED: CC50

Quick one: CC50 of `O=C(NC1CCCCCC1)c1cc2c(s1)-c1ccsc1CC2` ?
> 100 µM

----------
Assay: Selectivity index, ratio of IC50 for cytotoxicity against MDCK cells to EC50 for antiviral activity Influenza A virus A/California/04/2009 (H1N1) infected in MDCK cells
Format: toxicity, cell-based
Conditions: dog, read-out: Selectivity Index
PROPERTY_MEASURED: selectivity ratio

Give the measured selectivity ratio of CC1CC2=C(NC(=O)NC2c2ccc(O)c(Br)c2)c2ccccc21 (stereo unspecified) .
> 510

----------
Assay: Cytotoxicity against MDCK cells assessed as reduction in cell viability measured after 48 hrs by WST-1 assay
Assay type: toxicity, cell-based, Canis lupus familiaris
Conditions: dog
PROPERTY_MEASURED: CC50 at 48 h

Field request: CC50 at 48 h | item: OC(CN1CCCCC1)Cn1c2c(c3ccccc31)CCCC2 (stereo unspecified)
> 200 µM

----------
Biological target: Phosphatidylinositol 4-phosphate 3-kinase C2 domain-containing subunit beta (Homo sapiens)
Sequence (O00750 whole entry, the tested form may be a part): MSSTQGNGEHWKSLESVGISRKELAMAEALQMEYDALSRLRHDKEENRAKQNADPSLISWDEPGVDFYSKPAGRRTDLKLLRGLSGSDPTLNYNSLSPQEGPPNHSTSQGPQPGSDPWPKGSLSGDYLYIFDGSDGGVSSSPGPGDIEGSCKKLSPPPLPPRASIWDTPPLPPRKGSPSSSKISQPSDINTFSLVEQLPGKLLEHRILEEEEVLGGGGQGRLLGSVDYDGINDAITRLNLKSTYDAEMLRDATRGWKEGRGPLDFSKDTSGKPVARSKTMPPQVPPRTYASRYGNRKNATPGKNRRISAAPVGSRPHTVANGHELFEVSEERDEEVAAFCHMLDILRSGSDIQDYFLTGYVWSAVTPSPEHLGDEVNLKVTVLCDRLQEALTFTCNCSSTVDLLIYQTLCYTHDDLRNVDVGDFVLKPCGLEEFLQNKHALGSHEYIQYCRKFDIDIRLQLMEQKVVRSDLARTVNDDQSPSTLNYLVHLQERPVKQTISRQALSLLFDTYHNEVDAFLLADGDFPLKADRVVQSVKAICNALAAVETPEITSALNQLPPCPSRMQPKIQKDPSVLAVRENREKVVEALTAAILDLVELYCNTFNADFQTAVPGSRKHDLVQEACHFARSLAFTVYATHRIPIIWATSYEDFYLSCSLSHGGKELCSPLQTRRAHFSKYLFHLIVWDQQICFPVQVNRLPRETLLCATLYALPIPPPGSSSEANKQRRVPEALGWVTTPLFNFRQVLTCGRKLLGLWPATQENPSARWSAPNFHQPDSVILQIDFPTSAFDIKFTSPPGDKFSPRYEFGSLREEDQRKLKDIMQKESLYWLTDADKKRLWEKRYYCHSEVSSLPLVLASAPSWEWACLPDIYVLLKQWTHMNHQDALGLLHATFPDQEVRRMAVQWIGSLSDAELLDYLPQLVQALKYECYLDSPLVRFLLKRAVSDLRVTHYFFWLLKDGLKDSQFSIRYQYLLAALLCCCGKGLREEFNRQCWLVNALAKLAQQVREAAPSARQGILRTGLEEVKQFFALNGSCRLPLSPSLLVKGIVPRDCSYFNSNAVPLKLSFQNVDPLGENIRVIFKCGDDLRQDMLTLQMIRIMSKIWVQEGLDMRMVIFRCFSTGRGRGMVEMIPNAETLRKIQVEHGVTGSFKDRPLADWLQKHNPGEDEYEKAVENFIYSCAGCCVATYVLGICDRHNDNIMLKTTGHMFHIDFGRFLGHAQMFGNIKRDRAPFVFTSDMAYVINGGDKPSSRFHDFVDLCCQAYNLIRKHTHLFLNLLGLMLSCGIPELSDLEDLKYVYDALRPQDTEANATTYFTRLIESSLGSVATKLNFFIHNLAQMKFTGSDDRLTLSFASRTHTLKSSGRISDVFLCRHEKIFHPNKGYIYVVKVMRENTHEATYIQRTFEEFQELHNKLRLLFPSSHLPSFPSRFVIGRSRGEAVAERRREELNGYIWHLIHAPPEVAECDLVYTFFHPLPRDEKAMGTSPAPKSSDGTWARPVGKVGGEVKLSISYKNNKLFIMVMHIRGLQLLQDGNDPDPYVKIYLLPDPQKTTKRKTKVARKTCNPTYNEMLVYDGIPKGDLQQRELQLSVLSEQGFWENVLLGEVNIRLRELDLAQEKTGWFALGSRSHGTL
Assay: Inhibition of PIK3C2beta (unknown origin) by KINOMEscan method
PROPERTY_MEASURED: EC50 (nM)
# unit: nM | format: bare number

I have this compound here, `O=C(Cc1cccs1)Nc1cccc(-c2ccc3nnc(-c4cccnc4)n3n2)c1` , and I need its recorded EC50.
430

----------
System: Influenza A virus
Assay: Antiviral activity against Influenza A virus A/Perth/16/2009 (H3N2) infected in MDCK cells measured after 24 hrs post infection
Type: functional, organism-based
PROPERTY_MEASURED: EC50 (µM)
Number only, in µM; omit the unit.

Fill in the recorded EC50 for this molecule, with Influenza A virus as test system: `COc1ccccc1-c1cc2c(Nc3ccccc3)nccc2n1C`
8.29

----------
Tested on: Influenza A virus
Assay: Antiviral activity against influenza A virus A/Sydney/5/1997 (H3N2) infected in MDCK cells assessed as reduction in cytopathic effect incubated for 48 hrs by crystal violet staining based plaque assay
Format: functional, organism-based
PROPERTY_MEASURED: pEC50
Answer as the number alone; pEC50 is minus log10 of concentration in mol/L.

Would you kindly share the measured pEC50 for OC(CN1CCCCC1)Cn1c2c(c3ccccc31)CCCC2 (stereo unspecified) ?
4.35
